All figures here come from ChEMBL document CHEMBL4130501.

target_or_system: Amyloid-beta precursor protein (Homo sapiens) (UniProt P05067)
Sequence (P05067 whole entry): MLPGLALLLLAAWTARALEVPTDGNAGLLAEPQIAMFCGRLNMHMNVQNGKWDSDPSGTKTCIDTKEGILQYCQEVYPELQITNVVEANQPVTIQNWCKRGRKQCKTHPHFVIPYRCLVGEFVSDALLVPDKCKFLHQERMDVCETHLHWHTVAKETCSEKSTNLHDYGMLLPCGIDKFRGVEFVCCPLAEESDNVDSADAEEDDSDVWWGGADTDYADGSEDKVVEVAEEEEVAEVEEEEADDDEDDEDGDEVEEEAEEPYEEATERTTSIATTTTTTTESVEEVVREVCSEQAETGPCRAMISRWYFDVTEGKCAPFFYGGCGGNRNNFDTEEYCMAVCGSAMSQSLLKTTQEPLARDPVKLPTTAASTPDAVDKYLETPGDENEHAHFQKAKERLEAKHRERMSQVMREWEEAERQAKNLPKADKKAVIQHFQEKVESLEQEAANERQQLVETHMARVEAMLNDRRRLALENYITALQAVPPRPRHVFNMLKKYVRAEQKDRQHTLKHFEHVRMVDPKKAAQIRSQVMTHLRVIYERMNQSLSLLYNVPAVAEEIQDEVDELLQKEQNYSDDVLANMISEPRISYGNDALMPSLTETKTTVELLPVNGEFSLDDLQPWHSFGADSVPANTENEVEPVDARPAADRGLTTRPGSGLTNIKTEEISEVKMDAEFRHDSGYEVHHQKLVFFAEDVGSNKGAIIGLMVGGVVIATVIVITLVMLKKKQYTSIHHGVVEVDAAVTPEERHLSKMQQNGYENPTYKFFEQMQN
assay_notes: Inhibition of self-induced amyloid beta (1 to 42) (unknown origin) aggregation at 10 uM after 24 hrs by thioflavin T-based fluorometric assay relative to control
The reader will find reported inhibition values listed item by item below.

- sample_smiles: "CCN(C)C(=O)Oc1cccc(CCNC(=O)c2cc(O)c(O)c(O)c2)c1"
  inhibition: "27.1%"
- sample_smiles: "CCN(C)C(=O)Oc1cccc(NC(=O)c2cc(O)c(O)c(O)c2)c1"
  inhibition: "47.3%"
- sample_smiles: "CCN(C)C(=O)Oc1cccc(NC(=O)c2cc(=O)c3ccccc3o2)c1"
  inhibition: "63.8%"
